assay_remarks: Tmax in Sprague-Dawley rat at 20 mg/kg, po measured upto 12 hrs by UPLC-MS/ESI analysis
Assay type: ADME, organism-based
condition_parameters: in vivo
property: Tmax
Answer format reminder: number followed by unit.

## Task Please give the measured Tmax for this compound: COc1cc(-c2nccc3[nH]c(-c4cccc5c4ccn5C)nc23)cc(OC)c1OC
## Result 55.2 min

* * *

assay_remarks: Acute toxicity in C57 mouse assessed as lethal dose administered orally daily for 14 days
condition_parameters: in vivo, route po, time 14 day
property: LD50 at 336 h (mg/kg)
Report the figure in mg/kg without appending any unit label.

## Task Name the reported LD50 at 336 h value associated with the molecule COc1cc(-c2nccc3[nH]c(-c4cccc5c4ccn5C)nc23)cc(OC)c1OC
## Result 66.9

* * *

assay_remarks: Acute toxicity in C57 mouse assessed as survival rate at 64 mg/kg, po administered daily for 14 days relative to control
Assay type: organism-based
condition_parameters: in vivo, time 14 day, read-out: Activity
property: survival at 336 h (%)
Answer with a number only, understood to be in %.

## Task Fill in: survival at 336 h of COc1cc(-c2nccc3[nH]c(-c4cccc5c4ccn5C)nc23)cc(OC)c1OC is ___
## Result 60

* * *

assay_remarks: Oral bioavailability in Sprague-Dawley rat at 20 mg/kg measured upto 12 hrs by UPLC-MS/ESI analysis
Type: ADME, organism-based
condition_parameters: in vivo
property: bioavailability (%)
Write the value in % as a bare number.

## Task Sample COc1cc(-c2nccc3[nH]c(-c4cccc5c4ccn5C)nc23)cc(OC)c1OC — what was its bioavailability?
## Result 11

* * *

System: B16-F10
assay_remarks: Antiproliferative activity against mouse B16-F10 cells assessed as inhibition of cell proliferation incubated for 48 hrs by MTT assay
Type: functional, cell-based
condition_parameters: B16-F10, 48 h
Measured IC50 values are reported for all entries that follow.
Note: unit nM is implicit; provide only the numeric part.

Guide cases for IC50, answers given:
molecule | target_entity | measure_unit | IC50
COc1cc(-c2n[nH]c3ccc(-c4ccc5c(ccn5C)c4)nc23)cc(OC)c1OC | B16-F10 | nM | 43
COc1cc(-c2n[nH]c3ccc(-c4cccc5c4ccn5C)cc23)cc(OC)c1OC | B16-F10 | nM | 66
CCn1ccc2ccc(-c3nc4c(-c5cc(OC)c(OC)c(OC)c5)nccc4[nH]3)cc21 | B16-F10 | nM | 631
COc1cc(-c2n[nH]c3cnc(-c4ccc5c(ccn5C)c4)cc23)cc(OC)c1OC | B16-F10 | nM | 1000
COc1cc(-c2n[nH]c3cnc(-c4cccc5c4ccn5C)cc23)cc(OC)c1OC | B16-F10 | nM | 197
COc1ccc(-c2nccc3[nH]c(-c4cccc5c4ccn5C)nc23)cc1OC | B16-F10 | nM | 199
COc1cc(-c2nccc3[nH]c(-c4ccc5ccn(C)c5c4)nc23)cc(OC)c1OC | B16-F10 | nM | 33
COc1ccc(-c2ccc3[nH]nc(-c4cc(OC)c(OC)c(OC)c4)c3n2)cc1 | B16-F10 | nM | 271

## Task May I ask what IC50 has been recorded for COc1cc(OC)cc(-c2nccc3[nH]c(-c4cccc5c4ccn5C)nc23)c1 ?
## Result 310

## Task Which IC50 is reported for this molecule? COc1cc(-c2n[nH]c3ccc(-c4cccc5c4ccn5C)nc23)cc(OC)c1OC
## Result 21

src = ChEMBL document CHEMBL5338766
